Reported protein stability index values for a set of variants
B1: PHTF1 (parent)
chain: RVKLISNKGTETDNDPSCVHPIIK

variants of: B1; assay: protein stability index of a GFP-peptide fusion (GPS, HEK-293T) (PSI 1-6); higher = more stable; conditions: c terminus: a fixed tail appended;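 further: lentivirally expressed fusions sorted by FACS into six bins by GFP to DsRed ratio, PSI derived from sequencing read proportions per bin multiplied by bin number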
measured_attribute: protein stability index

• D13T = 3.76
• N14Q = 4.29
• S6P = 4.17
• P16T = 3.94
• I5C = 3.97
• H20V = 3.86
• I22F = 3.88
• E11W = 2.43
• S17I = 3.29
• I23W = 3.52
• T10Y = 3.94
